Every entry's value here was drawn from BigSolDB 2.1.

condition info: in ethanol, 298.15 K
recorded endpoint: solubility (mole fraction)

-- ask Query (molecule): `CCOC(=O)C1(c2ccccc2)CCN(CCC(C#N)(c2ccccc2)c2ccccc2)CC1` ; field requested: solubility (mole fraction)
-- reply 0.00198

* * *

condition info: in isopropanol, 318.15 K
recorded endpoint: solubility (mole fraction)

-- ask Query (compound): `CCOC(=O)C1(c2ccccc2)CCN(CCC(C#N)(c2ccccc2)c2ccccc2)CC1` ; field requested: solubility (mole fraction)
-- reply 0.00156

* * *

condition info: in ethanol, 293.15 K
recorded endpoint: solubility (mole fraction)

-- ask Query (molecule): `CCOC(=O)C1(c2ccccc2)CCN(CCC(C#N)(c2ccccc2)c2ccccc2)CC1` ; field requested: solubility (mole fraction)
-- reply 0.00169

* * *

condition info: in ethanol, 308.15 K
recorded endpoint: solubility (mole fraction)
Numbers only.

-- ask Query (compound): `CCOC(=O)C1(c2ccccc2)CCN(CCC(C#N)(c2ccccc2)c2ccccc2)CC1` ; field requested: solubility (mole fraction)
-- reply 0.0027

* * *

condition info: in acetone, 318.15 K
recorded endpoint: solubility (mole fraction)
Numbers only.

-- ask Query (molecule): `CCOC(=O)C1(c2ccccc2)CCN(CCC(C#N)(c2ccccc2)c2ccccc2)CC1` ; field requested: solubility (mole fraction)
-- reply 0.00776

* * *

condition info: in acetone, 298.15 K
recorded endpoint: solubility (mole fraction)
One number for each entry.

-- ask Query (compound): `CCOC(=O)C1(c2ccccc2)CCN(CCC(C#N)(c2ccccc2)c2ccccc2)CC1` ; field requested: solubility (mole fraction)
-- reply 0.00479

* * *

condition info: in isopropanol, 298.15 K
recorded endpoint: solubility (mole fraction)
Answers are plain numbers.

-- ask Query (molecule): `CCOC(=O)C1(c2ccccc2)CCN(CCC(C#N)(c2ccccc2)c2ccccc2)CC1` ; field requested: solubility (mole fraction)
-- reply 0.000442

* * *

condition info: in ethanol, 318.15 K
recorded endpoint: solubility (mole fraction)
One number for each entry.

-- ask Query (molecule): `CCOC(=O)C1(c2ccccc2)CCN(CCC(C#N)(c2ccccc2)c2ccccc2)CC1` ; field requested: solubility (mole fraction)
-- reply 0.00432

* * *

condition info: in methanol, 298.15 K
recorded endpoint: solubility (mole fraction)
One number for each entry.

-- ask Query (molecule): `CCOC(=O)C1(c2ccccc2)CCN(CCC(C#N)(c2ccccc2)c2ccccc2)CC1` ; field requested: solubility (mole fraction)
-- reply 0.00791

* * *

condition info: in isopropanol, 293.15 K
recorded endpoint: solubility (mole fraction)
Numbers only.

-- ask Query (compound): `CCOC(=O)C1(c2ccccc2)CCN(CCC(C#N)(c2ccccc2)c2ccccc2)CC1` ; field requested: solubility (mole fraction)
-- reply 0.000258

* * *

condition info: in acetone, 308.15 K
recorded endpoint: solubility (mole fraction)
Numbers only.

-- ask Query (compound): `CCOC(=O)C1(c2ccccc2)CCN(CCC(C#N)(c2ccccc2)c2ccccc2)CC1` ; field requested: solubility (mole fraction)
-- reply 0.00608

* * *

condition info: in water, 313.15 K
recorded endpoint: solubility (mole fraction)
One number for each entry.

-- ask Query (compound): `CCOC(=O)C1(c2ccccc2)CCN(CCC(C#N)(c2ccccc2)c2ccccc2)CC1` ; field requested: solubility (mole fraction)
-- reply 2.7e-05

* * *

condition info: in acetonitrile, 293.15 K
recorded endpoint: solubility (mole fraction)
One number for each entry.

-- ask Query (compound): `CCOC(=O)C1(c2ccccc2)CCN(CCC(C#N)(c2ccccc2)c2ccccc2)CC1` ; field requested: solubility (mole fraction)
-- reply 0.00427
